assay: Comparative bioavailability: baclofen plasma levels after oral baclofen or example 15; type: in vivo; details: 20 ug/kg, baclofen dosed 20 mcg/kg p.o.
Parameter: Cmax
Give the value; after it, write the unit.

For NCC(CC(=O)O)c1ccc(Cl)cc1 (stereo not shown) , what is its reported Cmax?
3600 ng/mL
